test system: Caov-4 (Ovarian Carcinoma); test: Bliss excess, mean over the matrix (fraction); higher = more synergy;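 further: after 72 h of two-drug dosing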
Listing of recorded Bliss excess by entry.
Write the value as a bare number.

Sample records with Bliss excess:
CC(=O)c1c(C)c2cnc(Nc3ccc(N4CCNCC4)cn3)nc2n(C2CCCC2)c1=O [Palbociclib] + CC1(C)CCC(CN2CCN(c3ccc(C(=O)NS(=O)(=O)c4ccc(NCC5CCOCC5)c([N+](=O)[O-])c4)c(Oc4cnc5[nH]ccc5c4)c3)CC2)=C(c2ccc(Cl)cc2)C1 [Venetoclax] (first compound max 10 µM, 7x7, partner max 1 µM)    -0.057
CN(C)CCCOc1ccc(-c2ccc3ncc4c(c3c2)n(C2CCOCC2)c(=O)n4C)cn1 [AZD0156] + CCN(CCO)CCCOc1ccc2c(Nc3cc(CC(=O)Nc4cccc(F)c4)[nH]n3)ncnc2c1 [AZD2811] (first compound max 1 µM, 7x7, partner max 1 µM)    0.005

**Query** What value of measured Bliss excess is listed for CN(C)CCCOc1ccc(-c2ccc3ncc4c(c3c2)n(C2CCOCC2)c(=O)n4C)cn1 [AZD0156] + C[C@@H]1COCCN1C2=NC(=NC(=C2)C3(CC3)[S@](=N)(=O)C)C4=C5C=CNC5=NC=C4 [AZD6738] (first compound max 1 µM, 7x7, partner max 10 µM) ?
**Result** -0.0388

**Query** What value of measured Bliss excess is listed for COc1nnc2ccc(N3CCC(c4ccc(OCCN5CCN(C)C(=O)[C@H]5C)cc4)CC3)nn12 [AZD5153] + CCN(CCO)CCCOc1ccc2c(Nc3cc(CC(=O)Nc4cccc(F)c4)[nH]n3)ncnc2c1 [AZD2811] (first compound max 1 µM, 7x7, partner max 1 µM) ?
**Result** -0.0403

**Query** What value of measured Bliss excess is listed for CCN(CCO)CCCOc1ccc2c(Nc3cc(CC(=O)Nc4cccc(F)c4)[nH]n3)ncnc2c1 [AZD2811] + O=C(c1cc(Cc2n[nH]c(=O)c3ccccc23)ccc1F)N1CCN(C(=O)C2CC2)CC1 [Olaparib] (first compound max 1 µM, 7x7, partner max 10 µM) ?
**Result** 0.0034

**Query** What value of measured Bliss excess is listed for CC1(C)CCC(CN2CCN(c3ccc(C(=O)NS(=O)(=O)c4ccc(NCC5CCOCC5)c([N+](=O)[O-])c4)c(Oc4cnc5[nH]ccc5c4)c3)CC2)=C(c2ccc(Cl)cc2)C1 [Venetoclax] + C[C@@H](Nc1cc(F)cc(F)c1)c1cc(C(=O)N(C)C)cc2c(=O)cc(N3CCOCC3)oc12 [AZD8186] (first compound max 1 µM, 7x7, partner max 3 µM) ?
**Result** -0.0109

**Query** What value of measured Bliss excess is listed for CN(CCO)CC[C@H](CSc1ccccc1)Nc1ccc(S(=O)(=O)NC(=O)c2ccc(N3CCC([C@@H](O)c4ccccc4-c4ccc(Cl)cc4)CC3)cc2)cc1S(=O)(=O)C(F)(F)F [AZD4320] + Cn1cnc2c(F)c(Nc3ccc(Br)cc3Cl)c(C(=O)NOCCO)cc21 [Selumetinib] (first compound max 1 µM, 7x7, partner max 3 µM) ?
**Result** 0.0418

----------
Listing of recorded Bliss excess by entry.
tested on: ACHN (Kidney Carcinoma); assay: Bliss excess, mean over the matrix (fraction); higher = more synergy
Write the value as a bare number.

Sample records with Bliss excess:
Cc1c2c(nn1C)CSCc1cc(n(C)n1)CSc1cc(c3ccccc3c1)OCCCc1c(C(=O)O)n(C)c3c-2c(Cl)ccc13 [AZD5991] + C=CCn1c(=O)c2cnc(Nc3ccc(N4CCN(C)CC4)cc3)nc2n1-c1cccc(C(C)(C)O)n1 [AZD1775] (first compound max 1 µM, partner max 1 µM)    -0.0085
N#Cc1cnc(Nc2cc(NC[C@H]3CNCCO3)c(C(F)(F)F)cn2)cn1 [SRA737] + CCc1c2c(nc3ccc(O)cc13)-c1cc3c(c(=O)n1C2)COC(=O)[C@]3(O)CC [SN-38] (first compound max 10 µM, 7x7, partner max 0.3 µM)    -0.0867
CN(CCO)CC[C@H](CSc1ccccc1)Nc1ccc(S(=O)(=O)NC(=O)c2ccc(N3CCC([C@@H](O)c4ccccc4-c4ccc(Cl)cc4)CC3)cc2)cc1S(=O)(=O)C(F)(F)F [AZD4320] + Cc1cc2ncnn2cc1Nc1ncc2c(n1)n(C1CCOCC1)c(=O)n2C [AZD7648] (first compound max 1 µM, 7x7, partner max 10 µM)    -0.0186
CN(C)CCCOc1ccc(-c2ccc3ncc4c(c3c2)n(C2CCOCC2)c(=O)n4C)cn1 [AZD0156] + O=C(c1cc(Cc2n[nH]c(=O)c3ccccc23)ccc1F)N1CCN(C(=O)C2CC2)CC1 [Olaparib] (first compound max 3 µM, partner max 3 µM)    0.0728
Cc1cc2ncnn2cc1Nc1ncc2c(n1)n(C1CCOCC1)c(=O)n2C [AZD7648] + O=C(c1cc(Cc2n[nH]c(=O)c3ccccc23)ccc1F)N1CCN(C(=O)C2CC2)CC1 [Olaparib] (first compound max 10 µM, 7x7, partner max 10 µM)    -0.0243
CC(=O)Nc1cccc(-n2c(=O)n(C3CC3)c(=O)c3c(Nc4ccc(I)cc4F)n(C)c(=O)c(C)c32)c1 [Trametinib] + Cc1nc(-c2cn3c(n2)-c2ccc(-c4cnn(C(C)(C)C(N)=O)c4)cc2OCC3)n(C(C)C)n1 [Taselisib] (first compound max 1 µM, 7x7, partner max 10 µM)    0.132

Consider the additional compound presented here.
**Query** What value of measured Bliss excess is listed for CC(=O)c1c(C)c2cnc(Nc3ccc(N4CCNCC4)cn3)nc2n(C2CCCC2)c1=O [Palbociclib] + Cn1cnc2c(F)c(Nc3ccc(Br)cc3Cl)c(C(=O)NOCCO)cc21 [Selumetinib] (first compound max 10 µM, 7x7, partner max 10 µM) ?
**Result** 0.0146
